Target or test system: Tyrosine-protein kinase ABL1 (Homo sapiens) (UniProt P00519)
Sequence (P00519 whole entry): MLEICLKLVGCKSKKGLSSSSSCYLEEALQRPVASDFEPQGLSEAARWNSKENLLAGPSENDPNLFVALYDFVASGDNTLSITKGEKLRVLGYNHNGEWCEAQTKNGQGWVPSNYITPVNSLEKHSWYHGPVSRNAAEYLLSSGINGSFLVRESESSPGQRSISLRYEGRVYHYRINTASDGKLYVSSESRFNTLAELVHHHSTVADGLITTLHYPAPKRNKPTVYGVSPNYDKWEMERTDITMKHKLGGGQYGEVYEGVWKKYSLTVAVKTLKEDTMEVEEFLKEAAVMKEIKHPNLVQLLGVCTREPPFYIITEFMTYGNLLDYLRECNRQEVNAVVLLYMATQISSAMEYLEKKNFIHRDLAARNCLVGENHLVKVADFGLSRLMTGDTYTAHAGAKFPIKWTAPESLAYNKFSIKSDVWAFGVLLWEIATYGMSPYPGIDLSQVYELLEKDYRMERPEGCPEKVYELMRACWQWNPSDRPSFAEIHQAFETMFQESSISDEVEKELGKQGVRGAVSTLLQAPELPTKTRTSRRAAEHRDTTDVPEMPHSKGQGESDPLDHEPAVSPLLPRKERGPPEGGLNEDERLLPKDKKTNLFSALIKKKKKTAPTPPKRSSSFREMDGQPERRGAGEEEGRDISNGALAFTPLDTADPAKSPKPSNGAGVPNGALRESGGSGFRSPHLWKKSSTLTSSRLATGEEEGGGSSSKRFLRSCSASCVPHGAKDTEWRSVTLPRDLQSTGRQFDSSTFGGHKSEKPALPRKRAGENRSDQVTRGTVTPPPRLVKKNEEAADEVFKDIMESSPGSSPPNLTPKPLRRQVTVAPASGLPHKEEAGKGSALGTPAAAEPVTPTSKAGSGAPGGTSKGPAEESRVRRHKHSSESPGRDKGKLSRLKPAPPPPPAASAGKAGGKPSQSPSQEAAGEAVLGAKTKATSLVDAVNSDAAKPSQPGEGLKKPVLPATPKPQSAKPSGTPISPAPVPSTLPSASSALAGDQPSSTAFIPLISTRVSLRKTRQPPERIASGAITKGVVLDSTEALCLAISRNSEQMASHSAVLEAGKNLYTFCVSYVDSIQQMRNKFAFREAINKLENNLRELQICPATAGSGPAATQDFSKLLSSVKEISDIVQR
Recorded conditions: Compound concentration 20.0 uM, Protein concentration 2.0 uM, Result type QC Liability
Description: Thermal Shift Assay. Domain: start/stop: S229-K512
The entries below come with measured ΔTm values attached.
Attribute measured: ΔTm

# Query smiles, Target or test system, Observed value
data = [
    ("Cc1cc(C)nc(Nc2ncc(C(=O)NCCc3c(C)[nH]c4ccccc34)cn2)c1", "Tyrosine-protein kinase ABL1 (Homo sapiens) (UniProt P00519)", "-0.23 °C"),
    ("COc1ccc(COc2ccc(Cc3cnc(N)nc3N)cc2OC)cc1", "Tyrosine-protein kinase ABL1 (Homo sapiens) (UniProt P00519)", "-0.19 °C"),
    ("Cc1nc(-c2ccc(C(F)(F)F)cc2)sc1C(=O)NCc1ccc(OC(C)(C)C(=O)O)cc1", "Tyrosine-protein kinase ABL1 (Homo sapiens) (UniProt P00519)", "0.61 °C"),
    ("Cc1sc(C(=O)c2cncnc2N[C@@H]2C[C@H](COS(N)(=O)=O)[C@@H](O)C2)cc1[C@@H]1NCCc2ccc(Cl)cc21", "Tyrosine-protein kinase ABL1 (Homo sapiens) (UniProt P00519)", "0.37 °C"),
    ("COc1cc(F)ccc1-c1ncnc(Nc2cccc(C[S@](C)(=N)=O)c2)n1", "Tyrosine-protein kinase ABL1 (Homo sapiens) (UniProt P00519)", "2.58 °C"),
    ("CCO[C@@H](Cc1ccc(OCCc2ccc(OS(C)(=O)=O)cc2)cc1)C(=O)O", "Tyrosine-protein kinase ABL1 (Homo sapiens) (UniProt P00519)", "0.03 °C"),
    ("C[C@@H](Oc1cc(-n2cnc3ccc(OC4CCN(C)CC4)cc32)sc1C(N)=O)c1ccccc1Cl", "Tyrosine-protein kinase ABL1 (Homo sapiens) (UniProt P00519)", "1.32 °C"),
    ("CC(C)(C)c1cc(NC(=O)c2csc(Nc3ccc(Cl)cc3)n2)no1", "Tyrosine-protein kinase ABL1 (Homo sapiens) (UniProt P00519)", "-0.19 °C"),
    ("COCCc1ccc(-c2c(C)nc3c(N4CCOCC4)ccnn23)cn1", "Tyrosine-protein kinase ABL1 (Homo sapiens) (UniProt P00519)", "0.28 °C"),
    ("Nc1ncnc2[nH]c(-c3ccccc3)nc12", "Tyrosine-protein kinase ABL1 (Homo sapiens) (UniProt P00519)", "3.48 °C"),
    ("Cc1nccc(COC(=O)N2C[C@@H]3[C@@H](CNC(=O)c4ccc5[nH]nnc5c4)[C@@H]3C2)n1", "Tyrosine-protein kinase ABL1 (Homo sapiens) (UniProt P00519)", "-0.16 °C"),
    ("CCc1c(-c2ccc3[nH]ncc3c2)cnc(N)c1-c1ccc(O)cc1", "Tyrosine-protein kinase ABL1 (Homo sapiens) (UniProt P00519)", "1.38 °C"),
    ("COc1ccc(CSc2nnc(-c3ccc4ncsc4c3)o2)cc1C(F)(F)F", "Tyrosine-protein kinase ABL1 (Homo sapiens) (UniProt P00519)", "-6.63 °C"),
    ("CNC(=O)COc1cc2cc(Nc3nc(N4CCC(C(=O)N(C)C)CC4)ncc3Cl)cc(OC)c2n(C)c1=O", "Tyrosine-protein kinase ABL1 (Homo sapiens) (UniProt P00519)", "-0.18 °C"),
    ("O=C(N[C@H]1CCC[C@H](CO)C1)C1CCN(c2nc3cc(Cl)c(-c4ccc(Cl)cc4)cc3o2)CC1", "Tyrosine-protein kinase ABL1 (Homo sapiens) (UniProt P00519)", "1.38 °C"),
    ("O=C(O)CCCN1CCC[C@H]1COc1ccc(Oc2ccc(Cl)cc2)cc1", "Tyrosine-protein kinase ABL1 (Homo sapiens) (UniProt P00519)", "0.14 °C"),
    ("Nc1ncnc2c1ccn2[C@@H]1O[C@H]([C@@H](O)c2ccccc2)[C@@H](O)[C@H]1O", "Tyrosine-protein kinase ABL1 (Homo sapiens) (UniProt P00519)", "0.21 °C"),
    ("N#CN1CC[C@@H](C(=O)Nc2nc3c(s2)CN(C(=O)CN=[N+]=[N-])CC3)C1", "Tyrosine-protein kinase ABL1 (Homo sapiens) (UniProt P00519)", "0.86 °C"),
    ("Cc1ccc2c(NS(=O)(=O)c3ccccc3Cl)cccc2c1Oc1ncccc1-c1ccnc(N[C@H]2CCCNC2)n1", "Tyrosine-protein kinase ABL1 (Homo sapiens) (UniProt P00519)", "1.79 °C"),
]

* * *

Target or test system: Glycogen synthase kinase-3 beta (Homo sapiens) (UniProt P49841)
Sequence (P49841 whole entry, looked up): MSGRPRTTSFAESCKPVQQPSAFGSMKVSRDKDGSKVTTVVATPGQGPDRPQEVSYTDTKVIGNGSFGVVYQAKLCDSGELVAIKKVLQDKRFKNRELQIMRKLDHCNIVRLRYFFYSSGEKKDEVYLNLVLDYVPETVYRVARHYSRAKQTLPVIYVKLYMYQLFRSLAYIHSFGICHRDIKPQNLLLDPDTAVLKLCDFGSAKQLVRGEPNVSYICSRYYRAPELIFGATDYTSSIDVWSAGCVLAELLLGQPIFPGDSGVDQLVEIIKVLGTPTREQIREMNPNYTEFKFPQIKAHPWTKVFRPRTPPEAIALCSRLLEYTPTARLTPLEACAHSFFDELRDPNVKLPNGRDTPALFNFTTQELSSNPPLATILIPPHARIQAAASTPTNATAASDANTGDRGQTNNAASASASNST
Recorded conditions: Compound concentration 20.0 uM, Protein concentration 2.0 uM, Result type QC Liability
Description: Thermal Shift Assay. Domain: start/stop: M26-R383
Classification field: enter Yes for ΔTm values not below 0.2 °C, No for values below it.

# Query smiles, Label
records = [
    ("CCCS(=O)(=O)N[C@H]1C[C@@H](N(C)c2ncnc3[nH]ccc23)C1", "Yes"),
    ("CNc1nc(-c2ccc3c(N)n[nH]c3c2)cc(N2C[C@@H](C(=O)NC3CCCCC3)CC[C@H]2C)n1", "Yes"),
    ("CC[C@H](NC(=O)[C@H](C)NC)C(=O)N1C[C@@H](O)C[C@H]1Cc1c(-c2[nH]c3cc(F)ccc3c2C[C@@H]2C[C@H](O)CN2C(=O)[C@H](CC)NC(=O)[C@H](C)NC)[nH]c2cc(F)ccc12", "No"),
    ("NC(=O)OC[C@H](NC(=O)Cn1nc(-c2ccc(Cl)cc2)n(C[C@H](O)C(F)(F)F)c1=O)c1cccc(C(F)(F)F)c1", "Yes"),
    ("Cc1cccc(-c2nn3c(c2-c2ccnc4ccc(C(N)=O)cc24)CCC3)n1", "Yes"),
    ("CCN1C(=O)/C(=C(\\NC2CCN(C)CC2)c2ccc3c(c2)OCO3)c2cc(C(C)=O)ccc21", "Yes"),
    ("COc1ncc(-c2cc(-c3ncc(CN4C[C@@H](C)O[C@@H](C)C4)o3)c3cn[nH]c3c2)cc1NS(C)(=O)=O", "No"),
]

* * *

Target or test system: Tyrosine-protein kinase ABL1 (Homo sapiens) (UniProt P00519)
Recorded conditions: Compound concentration 20.0 uM, Protein concentration 2.0 uM, Result type QC Liability
Give YES when the value for ΔTm is at least 0.2 °C. Give NO when it is less.

# Query smiles, Label
measured = [
    ("O=C(Nc1snnc1C(=O)Nc1ccc(N2CCCC2)cc1)c1cncc(C(F)(F)F)c1", "YES"),
    ("COCCOCn1c(S(C)(=O)=O)nc2c1c(=O)n(C)c(=O)n2C", "YES"),
    ("COc1cc(-c2cn[nH]c2)ccc1C(=O)Nc1ccc2c(c1)CCNCC2", "YES"),
    ("CCOc1cc(CC(=O)N[C@@H](CC(C)C)c2ccccc2N2CCCCC2)ccc1C(=O)O", "NO"),
    ("CNC(=O)c1cccc(-c2ccc3c(N4CCOC[C@@H]4C)nc(N4CCOC[C@@H]4C)nc3n2)c1", "YES"),
]

* * *

Target or test system: Casein kinase I isoform delta (Homo sapiens)
Recorded conditions: Compound concentration 20.0 uM, Protein concentration 2.0 uM, Result type QC Liability
Description: Thermal Shift Assay. Domain: start/stop: M1-K294

# Compound, ΔTm / °C
records = [
    ("CCNC1=N[C@@H]2[C@@H](O)[C@H](O)[C@@H](CO)O[C@@H]2S1", 0.01),
    ("N=C(N)NCCC[C@H](NC(=O)C(c1ccccc1)c1ccccc1)C(=O)NCc1ccc(CNC(N)=O)cc1", 0.29),
    ("COc1cc(C(N)=O)nc(-c2cccc(C#C[C@]3(O)CCN(C)C3=O)c2)c1", -0.06),
    ("CC(C=CC1=C(C)CCCC1(C)C)=CC=CC(C)=CC(=O)O", 0.93),
    ("CC[C@@H](C(=O)OC)n1c(=O)c2ccccc2n(Cc2cn(C)c3cccc(C)c23)c1=O", 0.32),
    ("COc1cc(-c2nn([C@H]3CC[C@H](N4CCN(C(C)=O)CC4)CC3)c3ncnc(N)c23)ccc1NC(=O)c1cc2ccccc2n1C", 21),
    ("CC(C(=O)Nc1cc(C#N)ccc1CCCC(=O)O)c1ccc(F)c2ccccc12 (stereo not drawn)", 0.09),
    ("Cc1[nH]c2c(N3CCCCC3)c(-c3ccccc3)nn2c(=O)c1-c1ccc(O)cc1", 1.23),
    ("CCO[C@H](COc1ccc(C(F)(F)F)cc1)CSc1ccc(OCC(=O)O)c(C)c1", 0.11),
    ("Cc1cc(OC2CCS(=O)(=O)CC2)cc(C)c1-c1cccc(COc2ccc(CCC(=O)O)c(F)c2)c1", 0.59),
    ("CC(C)C(=O)N1CCC(c2cn(C)c3ncc(NC(=O)c4cccc(C#N)c4)c(C(F)(F)F)c23)CC1", 0.74),
    ("CCN(C)S(=O)(=O)Nc1cccc(-c2ccc3c(NC(=O)C4CC4)n[nH]c3c2)c1", 0.06),
    ("Clc1ccc(-c2nc3sccn3c2/C=N/OCc2ccc(Cl)c(Cl)c2)cc1", -2.09),
    ("Cc1ccc(NS(=O)(=O)c2ccc3c(c2)C2C=CCC2C(c2ccc(C(=O)O)cc2)N3)cc1C (stereo not drawn)", 0.36),
    ("Nc1ncc2c(n1)-c1c([nH]c3ccc(C4=CCOCC4)cc13)CCC2", 2.29),
    ("Nc1nccc(-c2c(-c3ccc(F)cc3)ncn2C2CCCCC2)n1", 8.08),
    ("CCCNc1ccc2ncc(-c3ccncc3)n2n1", 5.6),
    ("C[C@@H](Oc1cc(-n2cnc3ccc(OC4CCN(C)CC4)cc32)sc1C(N)=O)c1ccccc1Cl", 0.23),
    ("C=C1/C(=C\\C=C2/CCC[C@]3(C)[C@@H]([C@H](C)CCCC(C)(C)O)CC[C@@H]23)C[C@@H](O)C[C@@H]1O", 0),
    ("CNc1[nH]c(Nc2ccc(C(=O)N3CCOCC3)cc2OC)nc2ncc(Cl)c1-2", 4.5),
    ("COc1cc(Nc2cnc(C#N)c(O[C@H](C)CN(C)C)n2)ncc1-c1cnn(C)c1", 2.14),
    ("Cn1cc(Nc2nccc(N3CC4CCC(C3)N4C(=O)[C@@H]3CC3(F)F)n2)cn1", 0.33),
    ("CC1CNCCc2c1nc1ccnn1c2N1CC(C(=O)N2CCC(C)(C)C2)C1 (stereo not drawn)", 0.46),
    ("CNC(=O)c1ccc(C)c(-n2c(C)cc(OCc3ccc(F)cc3F)c(Br)c2=O)c1", -0.45),
    ("CCc1ccccc1C(=O)Nc1n[nH]c2c(C)c(F)c(C3C(C#N)=C(C)N(C)C(C)=C3C#N)cc12", 0.67),
    ("COc1c(-c2cn(C3CCC(=O)NC3=O)nn2)csc1C(=O)N1CCCC1 (stereo not drawn)", 0),
    ("CC(C)Oc1ccc(Cc2ccc(NC3=NCCN3)cc2)cc1", -0.09),
    ("CN(C)c1ccc(-c2cc3ncccc3c(OCCCCO)n2)cc1", 1.32),
    ("COc1cc(N2CCN(C)CC2)ccc1Nc1ncc2c(n1)N(C)c1ccccc1C(=O)N2CC(F)(F)F", 0.47),
    ("CCCS(=O)(=O)N[C@H]1C[C@@H](N(C)c2ncnc3[nH]ccc23)C1", 0.73),
    ("CS(=O)(=O)NC(=O)CCC/C=C\\C[C@H]1C(=O)C[C@@H](O)[C@@H]1/C=C/[C@@H](O)COc1ccccc1", -0.2),
    ("CCN(C(=O)CO)[C@H]1CN(/C(=N\\C#N)Nc2cccc(OC(F)F)c2)N=C1c1ccc(Cl)c(Cl)c1", 0.23),
    ("Cc1cc(OCc2nc3ccccc3s2)ccc1NC(=O)Nc1ccc(Cl)c(Cl)c1", -0.26),
    ("CCS(=O)(=O)Nc1cccc(Oc2cc(F)cc(Nc3ccc(I)cc3F)c2NS(=O)(=O)C2CC2)c1", 0.44),
    ("CN(C)C(=O)Cn1cc(-c2nc([C@@](C)(c3ccc(-c4cnc(N)nc4)cc3)C3CC3)no2)cn1", 0.5),
    ("O=C(Nc1ccc(Cl)c(-c2ccccn2)c1)c1cccc(COc2ccc(Br)cc2CNCCO)c1", 0.55),
    ("c1ccc2c(c1)SCc1c-2[nH]c2ccccc12", -0.03),
    ("C[C@@H](COCCC(=O)N1CCN(c2ncc(C(F)(F)F)cn2)CC1)Nc1cn[nH]c(=O)c1C(F)(F)F", -0.05),
]
